These measurements were taken from patent US11999697B2.

Tested on: OCI-AML3
Assay: MTS cell proliferation assay, OCI-AML3
Assay type: cell-based
Settings: Homo sapiens, OCI-AML-3, 96 hours, read-out: IC50 (μM) at 96 hours, OCI-AML3
Each record here notes measured IC50.

MOLECULE | TESTED TARGET | IC50, µM
Cc1c(-c2ccc(-c3ccccc3F)cc2)nc2ccc(F)cc2c1C(=O)O [BQR•Na, reference compound] | OCI-AML3 | 0.4
CCOc1ccc(-c2ccc(-c3cc(C(=O)O)c4cccc(F)c4n3)cc2)cc1 | OCI-AML3 | 2.9
COc1ccc(-c2ccc(-c3cc(C(=O)O)c4cccc(F)c4n3)cc2)cc1 | OCI-AML3 | 4.99
CC1=C(/C=C/C(C)=C/C=C/C(C)=C/C(=O)O)C(C)(C)CCC1 [ATRA, all-trans-retinoic acid, reference compound] | OCI-AML3 | 0.09
Cc1c(-c2ccc(-c3ccc(F)cc3)cc2)nc2ccc(F)cc2c1C(=O)O | OCI-AML3 | 4.01
COc1ccc(-c2ccc(-c3cc(C(=O)O)c4cc(Cl)ccc4n3)cc2)cc1 | OCI-AML3 | 3.37
CCOc1ccc(-c2ccc(-c3cc(C(=O)O)c4cc(F)ccc4n3)cc2)cc1 | OCI-AML3 | 0.61
O=C(O)c1cc(-c2ccc(-c3ccc(F)cc3)cc2)nc2ccc(Cl)cc12 | OCI-AML3 | 6.25
Cc1c(-c2ccc(-c3ccc(F)cc3F)cc2)nc2c(F)cccc2c1C(=O)O | OCI-AML3 | 11.2

* * *

Test: Pharmacokinetic study, single dose by IV, IP, PO
Format: in vivo, wild type B6 mice
Conditions: B6, mouse, plasma; IP, 10 mg/kg single dose
RESULT TYPE: half-life (h)

MOLECULE | VALUE REPORTED
CCOc1ccc(-c2ccc(-c3cc(C(=O)O)c4cc(F)ccc4n3)cc2)cc1 [Cpd3] | 2.2

* * *

Assay: Pharmacokinetic study, single dose by IV, IP, PO
Format: in vivo, wild type B6 mice
Settings: B6, mouse, plasma; IV, 10 mg/kg single dose

COMPOUND | half-life
CCOc1ccc(-c2ccc(-c3cc(C(=O)O)c4cc(F)ccc4n3)cc2)cc1 [Cpd3] | 2.3 h

* * *

Assay: Pharmacokinetic study, single dose by IV, IP, PO
Type: in vivo, wild type B6 mice
Settings: B6; IV, 10 mg/kg single dose, mouse plasma

MOLECULE | Cmax [ng/mL]
CCOc1ccc(-c2ccc(-c3cc(C(=O)O)c4cc(F)ccc4n3)cc2)cc1 [Cpd3] | 36400

* * *

Assay: Pharmacokinetic study, oral dosing at different dose levels
Format: in vivo, wild type B6 mice
Conditions: B6, mouse, plasma; oral gavage, 50 mg/kg

MOLECULE | half-life / h
CCOc1ccc(-c2ccc(-c3cc(C(=O)O)c4cc(F)ccc4n3)cc2)cc1 [Cpd3] | 3.23

* * *

Experiment: Pharmacokinetic study, oral dosing at different dose levels
Format: in vivo, wild type B6 mice
Details: B6, mouse, plasma, po, 50 mg/kg, oral gavage, 50 mg/kg; read-out: AUC0-24
RESULT TYPE: AUC(0-t) (µg·h/mL)

COMPOUND | RESULT TYPE | RESULT UNITS | VALUE REPORTED
CCOc1ccc(-c2ccc(-c3cc(C(=O)O)c4cc(F)ccc4n3)cc2)cc1 [Cpd3] | AUC(0-t) | µg·h/mL | 480

* * *

Assay: Pharmacokinetic study, single dose by IV, IP, PO
Format: in vivo, wild type B6 mice
Conditions: B6, mouse, plasma; IP, 10 mg/kg single dose

CHEMICAL STRUCTURE | bioavailability / %
CCOc1ccc(-c2ccc(-c3cc(C(=O)O)c4cc(F)ccc4n3)cc2)cc1 | 89

* * *

Assay: Pharmacokinetic study, single dose by IV, IP, PO
Type: in vivo, wild type B6 mice
Conditions: B6; IP, 10 mg/kg single dose, mouse plasma

COMPOUND | RESULT UNITS | Cmax
CCOc1ccc(-c2ccc(-c3cc(C(=O)O)c4cc(F)ccc4n3)cc2)cc1 [Cpd3] | ng/mL | 40200

* * *

Test: Pharmacokinetic study, single dose by IV, IP, PO
Type: in vivo, wild type B6 mice
Conditions: B6, mouse, plasma; PO, 10 mg/kg single dose

CHEMICAL STRUCTURE | bioavailability (%)
CCOc1ccc(-c2ccc(-c3cc(C(=O)O)c4cc(F)ccc4n3)cc2)cc1 | 32

* * *

Test: Pharmacokinetic study, oral dosing at different dose levels
Assay type: in vivo, wild type B6 mice
Settings: B6, mouse, plasma; oral gavage, 75 mg/kg
RESULT TYPE: half-life (h)

CHEMICAL STRUCTURE | RESULT TYPE | VALUE REPORTED
CCOc1ccc(-c2ccc(-c3cc(C(=O)O)c4cc(F)ccc4n3)cc2)cc1 | half-life | 2.76

* * *

Test: Pharmacokinetic study, oral dosing at different dose levels
Assay type: in vivo, wild type B6 mice
Details: B6, mouse, plasma; oral gavage, 75 mg/kg

CHEMICAL STRUCTURE | RESULT UNITS | Cmax
CCOc1ccc(-c2ccc(-c3cc(C(=O)O)c4cc(F)ccc4n3)cc2)cc1 | µg/mL | 115
